system: SK-MEL-28; test: NCI tumour cell line growth inhibition, 48 h
Calls of active or inactive are those of the source. No stated cut-off is given here; in the data, active = GI50 up to about 1.1 µM and inactive = higher.
endpoint name: GI50

* CN(C)C1C(=O)C(C(N)=O)=C(O)C2(O)C(O)=C3C(=O)c4c(O)cccc4C(C)(O)C3CC12 (stereo not drawn) | 93.5 µM (inactive)
* N#Cc1c(-c2ccc(Cl)cc2)c(-c2ccc(Cl)cc2)nn(CCOC(=O)CCC(=O)O)c1=O | 5.47 µM (inactive)
* O=C(NCc1ccccc1)c1cc2ccccc2o/c1=N\c1cccc(C(F)(F)F)c1 | > 100 µM (inactive)
* Nc1nc2c(ncn2CC2CCC(CO)C2)c(=O)[nH]1 (stereo not drawn) | > 100 µM (inactive)
* CN(C)CCOc1ccc2[nH]c(C(=O)N3CC(CCl)c4c3cc([N+](=O)[O-])c3ccccc43)cc2c1 (stereo not drawn) | 1.72 µM (inactive)
* Cc1cc(=O)oc2cc(O)ccc12 [HYMECROMONE] | > 100 µM (inactive)
* Cc1cc(=O)nc(S(=O)(=O)NC(=O)Nc2cccc(Cl)c2)[nH]1 | > 100 µM (inactive)
* COC(=O)C1(Cc2ccc3c(c2)CCC3)Cc2ccccc2C1O (stereo not drawn) | 16.9 µM (inactive)
